Test: Hsp70 promoter-driven reporter induction – cell-based, HeLa, Hsp70 promoter luciferase, luminescence, 10 µM, primary screen (AID 1203);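 also: 100% = MG132 at 30 µM as the positive control and 0% = DMSO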
Conditions: at 10 µM, hits give high values, scaled: vehicle 0, proteasome-inhibitor control 100%
In all, about 200,000 compounds went through this assay and about 80 (0.04%) were called active. The entries come from a sample that favours actives as a whole.
Observation Type: activation (%)
Answers are plain numbers, in %.

Look over these answered cases.
Molecule: Fc1cccc(Cc2noc(CN3CCN(c4cnccn4)CC3)n2)c1
Observed Value: 0.1

Molecule: Cc1cc(C)c(OCCN2CC(C)OC(C)C2)c(Br)c1 (stereo not given)
Observed Value: -0.19

Molecule: Cc1cccc(OCC(O)CN2CCN(CCN3C(=O)c4cccc5cccc(c45)C3=O)CC2)c1C (stereo not given)
Observed Value: -0.21

Give activation for each of the items listed below.
1. CC(C)c1ccc(C2C(C#N)=C(N)Oc3c2oc(CO)cc3=O)cc1 (stereo not given)
2. O=C(NC1CCc2ccccc21)C12CN(Cc3ccccc3)CC1C(c1cccc([N+](=O)[O-])c1)=NO2 (stereo not given)

[-0.2, -0.09]

* * *

Test: Hsp70 promoter-driven reporter induction – cell-based, HeLa, Hsp70 promoter luciferase, luminescence, 10 µM, primary screen (AID 1203);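 also: 100% = MG132 at 30 µM as the positive control and 0% = DMSO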
Settings: at 10 µM, hits give high values, scaled: vehicle 0, proteasome-inhibitor control 100%
Among all 200,000 compounds or so, about 80 (0.04%) were called active. This is one part of a sample in which actives are shown more often than they occur.
For each of the compounds below, state its activation.
Answers are plain numbers, in %.

Look over these answered cases.
Compound: Cn1c(=O)cc(OCC(=O)N2CCN(c3ccccc3F)CC2)c2ccccc21
activation (%): 0.82

Compound: Cc1ccnc(SCC(N)=O)n1
activation (%): -0.02

Compound: Fc1ccccc1CNC(=S)Nc1ccc(Cl)cc1
activation (%): -0.2

Compound: CCOC(=O)c1cnc2c(c(C)nn2CC)c1Cl
activation (%): -0.38

Compound: CCCC(C)C(=O)OCC(=O)Nc1c(Br)cc(C)cc1Br (stereo unspecified)
activation (%): -0.19

Give activation for each of the items listed below.
1. CCC(C)(C(=O)Nc1ccccc1C)N(C(=O)CNC(C)=O)c1ccc(C)cc1 (stereo unspecified)
2. CC(C)(C)c1ccc(NC(=O)COC(=O)CCc2nc3ccccc3c(=O)[nH]2)cc1
3. C/C(=N\NC(=O)CCn1nc(C)cc1C)C(C)(C)C

1. -0.25
2. -0.35
3. -0.13

Give activation for each of the items listed below.
1. NS(=O)(=O)c1ccc(CCNC(=S)Nc2ccc(S(N)(=O)=O)cc2)cc1
2. C/C(=N\NC(=O)CNc1cccc2ccccc12)c1ccc(Br)s1
3. CC(=O)Nc1nc2ccccc2n1Cc1ccc(C)cc1

[0.04, -0.39, -0.13]

* * *

Assay: Hsp70 promoter-driven reporter induction – cell-based, HeLa, Hsp70 promoter luciferase, luminescence, 10 µM, primary screen (AID 1203);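 also: 100% = MG132 at 30 µM as the positive control and 0% = DMSO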
Details: at 10 µM, scaled: vehicle 0, proteasome-inhibitor control 100%
Among all 200,000 compounds or so, about 80 (0.04%) were called active.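 Rule for the calls: active = activation above the mean across all tested compounds plus 3 SD, cutoff set per campaign (cut at about 5.5% in these data); inactive = the rest.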 The sample as a whole holds a higher share of actives than the screen did.
The reply should be one of these categories: active, inactive

Previously resolved entries follow.
Compound: COCC(C)n1c(SCc2ccc(C(=O)OC)o2)nc2ccccc2c1=O (configuration not stated)
Assigned Class: inactive

Compound: NC(=O)c1ccc(NC(=O)COC(=O)c2c3c(nc4ccccc24)/C(=C\c2ccc4c(c2)OCO4)CCC3)cc1
Assigned Class: inactive

Compound: COCC(C)n1c(C)cc(C(=O)CSc2cc(C)c3ccccc3n2)c1C (configuration not stated)
Assigned Class: inactive

Compound: COc1ccc(CNC(=O)C2CCN(S(C)(=O)=O)CC2)cc1
Assigned Class: inactive

Compound: CC(C)CC(=O)NC(=S)Nc1ccc(F)cc1F
Assigned Class: inactive

Per the assay record, what outcome was assigned to COc1ccc(NC(=O)COC(=O)c2ccc(NS(=O)(=O)/C=C/c3ccccc3)cc2)cc1 ?
inactive

Per the assay record, what outcome was assigned to O=C1NC2(CCCCCC2)C(=O)N1CCS(=O)(=O)Oc1ccccc1 ?
inactive

Per the assay record, what outcome was assigned to O=C(NCc1ccccc1Cl)C1CCC(CNc2c(N3CCCCC3)c(=O)c2=O)CC1 (configuration not stated) ?
inactive

Per the assay record, what outcome was assigned to Cc1ccc(NC(=S)N(CCCN2CCCC2)Cc2cccn2Cc2ccc(Cl)cc2)cc1 ?
inactive

Per the assay record, what outcome was assigned to NS(=O)(=O)c1cccnc1Nc1cccc(Cl)c1 ?
inactive

Per the assay record, what outcome was assigned to Cc1ccccc1NC(=O)Cn1c(=O)n(CC2CCCO2)c(=O)c2ccccc21 (configuration not stated) ?
inactive

Per the assay record, what outcome was assigned to COCCn1c(C)cc(C(=O)CSc2nc3ccccc3c(=O)n2C(C)COC)c1C (configuration not stated) ?
active

Per the assay record, what outcome was assigned to COc1ccc(C2CC(c3cccs3)=NN2C(=O)CSc2nnc(N)s2)cc1OC (configuration not stated) ?
inactive

Reference source for all entries: PubChem BioAssay AID1203
